# EXPERIMENTAL PROTOCOL: Neutral Red (Toxicity) of the antiviral screening
# CONDITION PARAMETERS: human, CC50, Assay No. 1; Neutral Red (Toxicity), line of the virus yield reduction assay
RESULT TYPE: CC50 (µM)
Numbers only, in µM.

Req: // lookup CC50 for CN(C)CCCn1c(N)nc2ccc3c(c21)CC(CN(C)C)O3 (racemic) [Isis-11]
Resp: 6.9

====

# Test system: Dengue virus 2 New Guinea C
# EXPERIMENTAL PROTOCOL: In vitro antiviral screening, Neutral Red (Cytopathic effect)
# CONDITION PARAMETERS: Dengue virus, Huh-7, Assay No. 2; Huh7; Neutral Red (Cytopathic effect)
RESULT TYPE: EC50 (µM)
One number for each entry, in µM.

Req: For CN(C)CCCn1c(N)nc2ccc3c(c21)CC(CO)O3 (centres unmarked) , what is its reported EC50?
Resp: 5.6

Here is the next item to consider.
Req: Consider the compound shown here: CN(C)CCCn1c(N)nc2ccc3c(c21)CC(CN(C)C)O3 (racemic) What is its recorded EC50?
Resp: 0.49
